- System: Candida auris
- TEST: Antifungal broth microdilution MIC (50% growth inhibition) and MFC
- Format: cell-based
- EXPERIMENTAL SETUP: Candidozyma auris, C. auris 387; read-out: MIC
Reported values of MIC for individual entries
Report the value in µg/mL with no unit label.

- COMPOUND: "Cc1nc(-c2ccc(-c3ccccc3)cc2)sc1-c1nnc(N[C@@H]2CCCC[C@@H]2N)o1 (relative stereo) [Compound 17]"
  MEASURED QUANTITY: "MIC"
  UNIT DESCRIPTOR: "µg/mL"
  ASSAY VALUE: 2
- COMPOUND: "OC(Cn1cncn1)(Cn1cncn1)c1ccc(F)cc1F [Fluconazole, reference compound]"
  MEASURED QUANTITY: "MIC"
  UNIT DESCRIPTOR: "µg/mL"
  ASSAY VALUE: 8
- COMPOUND: "Cc1nc(-c2ccc(-c3ccccc3)cc2)sc1-c1nnc(NCCN)o1 [Compound 7]"
  MEASURED QUANTITY: "MIC"
  UNIT DESCRIPTOR: "µg/mL"
  ASSAY VALUE: 8

Please turn your attention to the following entry.
query: Give recorded MIC with Candida auris for the following compound: C[C@@H]1[C@H](O)[C@@H](C)/C=C/C=C/C=C/C=C/C=C/C=C/C=C/[C@H](O[C@@H]2O[C@H](C)[C@@H](O)[C@H](N)[C@@H]2O)C[C@@H]2O[C@](O)(C[C@@H](O)C[C@@H](O)[C@H](O)CC[C@@H](O)C[C@@H](O)CC(=O)O[C@H]1C)C[C@H](O)[C@H]2C(=O)O [Amphotericin B, reference compound]
result: 1

src = paper PMC8568133
